Listed below: isobaric coefficient of expansion values for each entry.
- method.description: isobaric coefficient of expansion
- experimental.parameters: 278.15 K; 15000 kPa; Liquid; DSC

smiles.record | isobaric coefficient of expansion
CCCCCCCCC | 0.000954 1/K
CCCCCCCCCCC | 0.000893 1/K
CCCCCCCCCCCC | 0.000874 1/K
CCCCCCCCCC | 0.000922 1/K

Q: Tell me the measured isobaric coefficient of expansion of ClC(Cl)(Cl)Cl , please.
Result: 0.00108 1/K

---

- method.description: isobaric coefficient of expansion
- experimental.parameters: 308.15 K; 45000 kPa; Liquid; DSC
readout: isobaric coefficient of expansion

Example molecules with recorded isobaric coefficient of expansion:
molecule | isobaric coefficient of expansion
CCCCCCCCCCCCCCC [pentadecane] | 0.000734 1/K
CCCCCCCCCCCCC [tridecane] | 0.00075 1/K
CCCCCCCCCCCC [dodecane] | 0.000773 1/K
CCCCCCCCCCCCCC [tetradecane] | 0.000742 1/K
CCCCCCCCCC [decane] | 0.000812 1/K
CCCCCCCCC [nonane] | 0.000838 1/K
c1ccccc1 [benzene] | 0.00099 1/K
ClC(Cl)(Cl)Cl [tetrachloromethane] | 0.000978 1/K

Now take the following molecule into account.
Q: Tell me the measured isobaric coefficient of expansion of CCCCCCCCCCC [undecane] , please.
Result: 0.000789 1/K
